- ASSAY TARGET: T1, Cyno FRα ECD-Avi-His (cynomolgus monkey, biotin on the Avi-tag (BirA) in the HTRF assays)
- T1 construct: Soluble region with C-terminal Avi and His tags
- T1 sequence (chain, as listed by the source limits assumed): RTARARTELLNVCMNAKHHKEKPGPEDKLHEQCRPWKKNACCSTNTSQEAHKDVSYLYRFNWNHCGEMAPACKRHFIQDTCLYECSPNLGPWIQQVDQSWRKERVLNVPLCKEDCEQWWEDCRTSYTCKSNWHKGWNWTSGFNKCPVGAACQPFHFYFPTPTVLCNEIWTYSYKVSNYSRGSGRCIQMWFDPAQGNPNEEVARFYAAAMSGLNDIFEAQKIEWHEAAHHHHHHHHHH
- ASSAY PROCEDURE: SPR (Biacore T200)
Assignment: determine reported fold difference of affinity, cyno FRα against human FRα for the given binders.

// solved cases for fold difference of affinity, cyno FRα against human FRα follow
binder="AB1370083 hIgG1 (antibody, V domains shown) VH: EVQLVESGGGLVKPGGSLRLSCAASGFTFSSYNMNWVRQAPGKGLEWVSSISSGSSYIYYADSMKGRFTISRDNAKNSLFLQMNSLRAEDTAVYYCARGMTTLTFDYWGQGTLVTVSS VL: DIQMTQSPSSLSASVGDRVTITCRASQGISTFLAWFQQKPGKAPKSLIYAASSLQSGVPSKFSGSGSETDFTLTISSLQPEDFATYYCQQYISYPLTFGGGTKVEIKR" result="≤ 2.5 fold"
binder="AB1370095 hIgG1 (antibody, V domains shown) VH: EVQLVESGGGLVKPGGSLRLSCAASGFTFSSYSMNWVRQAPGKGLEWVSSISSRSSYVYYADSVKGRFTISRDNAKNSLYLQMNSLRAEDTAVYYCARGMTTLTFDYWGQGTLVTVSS VL: DIQMTQSPSSLSASVGDRVTITCRASQGISSFLAWFQQKPGKAPKSLIYAASSLQSGVPSKFSGSGSGTDFTLTISSLQPEDFATYYCQQYNSYPLTFGGGTKVEIKR" result="≤ 2.5 fold"

Next item in the queue.
Just so you know, measured fold difference of affinity, cyno FRα against human FRα for AB1370026 hIgG1 (antibody, V domains shown) VH: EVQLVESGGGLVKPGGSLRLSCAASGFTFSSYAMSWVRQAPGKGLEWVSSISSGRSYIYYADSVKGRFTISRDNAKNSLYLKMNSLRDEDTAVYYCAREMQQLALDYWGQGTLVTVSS VL: DIQMTQSPSSLSASVGDRVTITCRASQGISNFLAWFQQAPGKAPKSLIYAASSLQSGVPSKFSGSGSGTDFTLTISSLQPEDFATYYCQQYNSYPFTFGQGTKLEIKR came out at ≤ 2.5 fold
